# Test system: 786-0
# procedureSummary: NCI tumour cell line growth inhibition, 48 h
Active and inactive are the calls of the source. Cut-off read from the data, not from the text of the source: active = GI50 up to about 1.1 µM and inactive = higher.
Classes used: t (active), f (inactive)

compound	assignedCategory
CCC(=O)OCOc1ccc(/C=C2\CCC(CN(C)C)C2=O)cc1 (stereo unspecified)	f
CCOC(OCC)N1C(=O)C2(C(OCC)OCC)CC3C(OC(=O)N3N)c3cccc1c32 (stereo unspecified)	f
c1ccc(CSc2ccccc2CN2CCN(Cc3ccccc3SCc3ccccc3)CCN(Cc3ccccc3SCc3ccccc3)CC2)cc1	f
c1ccc2c(c1)SCCCSCCSCCCS2	f
C=C1CCC[C@@H](C)C(O)[C@@H]2OC(=O)C(=C)[C@@H]2C[C@@H](OC(C)=O)[C@@]2(C)CC[C@@H]1O2 (stereo partly specified)	f
Cc1ccc2[nH]c(Sc3c([N+](=O)[O-])ncn3C)nc2c1	f
CC(=O)OCC(OC(C)=O)C1C[C@H]2O[C@@H]3[C@H](C[C@H]2O1)O[C@@]1(C[C@@H]3C)C[C@H](C)[C@@H]2O[C@]3(C[C@@H]2O1)C[C@H]1O[C@H]2[C@H](C)[C@H]4OC(=O)CC5CC[C@H]6OC7[C@H]8O[C@]9(CC[C@H]%10CC(O)(CO)[C@H](CC[C@H]%11C[C@@H](C)C(O)(CO)C(C[C@@H]4O[C@H]2C[C@H]1O3)O%11)O%10)CC8O[C@@H]7[C@@H](O9)[C@H]6O5 (stereo partly specified)	t
CC1(C)CS(=O)(=O)CC(C)(C)C(=N/N)/C1=N\N	f
Cc1ccc(-c2nc3n(c2/C=N\N=C(N)N)CCS3)cc1	f
CC(C)COC(c1ccc2c(c1)OCO2)C(C)Br (stereo unspecified)	f
CCCn1c(=O)c(N2CCN(c3ccccc3)CC2)nc2sc3ccccc3c21	f
